Overview of reported GI50 across a group of compounds:
test system: UACC-257 melanoma; assay: NCI tumour cell line growth inhibition, 48 h

Past entries and their recorded results:
INSERT INTO results (compound_structure, result) VALUES
  ('O=[N+]([O-])c1cc2c(c([N+](=O)[O-])c1)Nc1ccccc1O2', '3.74 µM'),
  ('Nc1ccccc1C#Cc1ccccc1C#Cc1cnccn1', '35.3 µM');

Q: Requested read-out: GI50. Entry: `CC(C)(C)c1cc(-c2nc3c(F)c(F)c(F)c(F)c3[nH]2)cc(C(C)(C)C)c1O`
Result: > 100 µM

Q: Requested read-out: GI50. Entry: `COc1ccc2c(c1)C(=O)c1c-2c(NCCN(C)C)nc2ccccc12`
Result: 4.6 µM

Q: Requested read-out: GI50. Entry: `CC#CC(=O)N1CC[C@@H](n2c(=O)n(-c3ccc(Oc4ccccc4)cc3)c3c(N)ncnc32)C1`
Result: 51.8 µM

* * *

test system: SW-620 colon; experiment: NCI tumour cell line growth inhibition, 48 h; in the data active means GI50 below about 0.43 µM; inactive means the rest
Allowed answers: active, inactive

INSERT INTO measurements (compound, class_name) VALUES
  ('CCN(CC)CC[n+]1cc2cc(OC)c(OC)cc2c2ccc3cc4c(cc3c21)OCO4', 'inactive'),
  ('Cc1nn(C)c2cc(N(C)c3ccnc(Nc4cccc(S(N)(=O)=O)c4)n3)ccc12', 'inactive'),
  ('O=S(=O)(Nc1ccccn1)c1ccc(N=Nc2ccc(O)c3ncccc23)cc1', 'inactive'),
  ('Cc1ccc(C2=NN(c3ccc(S(N)(=O)=O)cc3)C(c3cn(-c4ccccc4)nc3-c3ccccc3)C2)cc1 (stereo unspecified)', 'inactive'),
  ('Cc1nc2sc(C(=O)Nc3cccc(Br)c3)c(N)c2cc1C(O)c1ccccc1 (stereo unspecified)', 'active'),
  ('COc1cc(N2CCC(N3CCN(C)CC3)CC2)ccc1Nc1ncc(Cl)c(Nc2ccccc2S(=O)(=O)C(C)C)n1', 'active');

Q: Could you kindly confirm the outcome this assay logged for `Oc1c(CN2CCN(c3ccccc3F)CC2)cc(Br)c2cccnc12` ?
Result: inactive

Q: Could you kindly confirm the outcome this assay logged for `O=C(O)c1ccccc1Nc1ccc2nnc(-c3ccncc3)n2n1` ?
Result: inactive

Q: Could you kindly confirm the outcome this assay logged for `Nc1ccc(-c2ccc(-c3nc4cc(Cl)c(Cl)cc4[nH]3)cc2)cc1` ?
Result: active

Q: Could you kindly confirm the outcome this assay logged for `Cc1ccc(S(=O)(=O)OC[C@@]2(C)CC[C@]3(C)CC[C@]4(C)C(=CC[C@@H]5[C@@]6(C)CCCNC(C)(C)[C@@H]6CC[C@]54C)[C@@H]3C2)cc1` ?
Result: inactive

Q: Could you kindly confirm the outcome this assay logged for `Clc1ccc2c(NCCNc3nc(N4CCCC4)nc4ccccc34)ccnc2c1` ?
Result: active

* * *

test system: HCC-2998 colon; assay: NCI tumour cell line growth inhibition, 48 h
Overview of reported TGI across a group of compounds:

Q: Requested read-out: TGI. Entry: `O=C1C[C@H](CCC(=O)OCc2ccccc2)NC(=O)C[C@H](CCC(=O)OCc2ccccc2)NC(=O)C[C@H](CCC(=O)OCc2ccccc2)N1`
Result: > 100 µM

Q: Requested read-out: TGI. Entry: `CCN(CC)CC[n+]1cc2cc(OC)c(OC)cc2c2ccc3cc4c(cc3c21)OCO4`
Result: 2.15 µM

Q: Requested read-out: TGI. Entry: CC(C)C1COC(c2ccc3ccccc3c2-c2c(O[Si](C)(C)C(C)(C)C)ccc3ccccc23)=N1 (centres undefined)
Result: 28.9 µM

Q: Requested read-out: TGI. Entry: `CCOC(=O)c1ccc(Nc2nc3cc(C(F)(F)F)ccc3nc2C(=O)OCC)cc1`
Result: 69.5 µM

* * *

system: SK-MEL-2 melanoma; assay: NCI tumour cell line growth inhibition, 48 h
Overview of reported TGI across a group of compounds:

Past entries and their recorded results:
INSERT INTO results (compound, result) VALUES
  ('O=NN(CCCl)C(=O)N[C@H]1CCCC[C@@H]1Cl', '> 100 µM'),
  ('c1ccc2c(CNCCCCCCCCCCCCNCc3cccc4ccccc34)cccc2c1', '2.93 µM'),
  ('COc1cc(C)c(NC(=O)CN(C)C)cc1Nc1nc(Nc2cccc(F)c2C(N)=O)c2cc[nH]c2n1', '3.32 µM');

Q: Requested read-out: TGI. Entry: `O=C(C=Nc1ccccc1C(=O)[O-])c1cccs1.O=C(C=Nc1ccccc1C(=O)[O-])c1cccs1.[Zn+2]`
Result: 52.1 µM

Q: Requested read-out: TGI. Entry: `CNC(=O)Nc1ccccc1`
Result: > 100 µM

Q: Requested read-out: TGI. Entry: `CCOC(=O)C(C(=O)OCC)=c1sc(=C(C(=O)OCC)C(=O)OCC)s1`
Result: > 100 µM

Q: Requested read-out: TGI. Entry: Cc1ccc(NC(=O)CC2C(=O)Nc3ccccc3S2=O)c(C)c1 (stereo unspecified)
Result: 35.9 µM

Q: Requested read-out: TGI. Entry: O=C1OC(CS(=O)(=O)c2ccccc2)CC1O (stereo unspecified)
Result: > 100 µM

Q: Requested read-out: TGI. Entry: `Fc1c(F)c(C(F)(F)F)c(F)c(F)c1N/N=C/c1cn(Cc2ccccc2)c2ccccc12`
Result: 55.7 µM

Q: Requested read-out: TGI. Entry: CC1(O)Oc2ccc3ccccc3c2C=C1C(N)=O (stereo unspecified)
Result: > 100 µM

Q: Requested read-out: TGI. Entry: `COCN1C(=O)[C@@H]2CCCN2C(=O)c2ccc([N+](=O)[O-])cc21`
Result: > 100 µM

* * *

system: UACC-62 melanoma; assay: NCI tumour cell line growth inhibition, 48 h
MEASUREMENT NAME: TGI

INSERT INTO measurements (compound, measurement_name, result) VALUES
  ('C#Cc1cc(CN(CC(=O)OC(C)(C)C)CC(=O)OC(C)(C)C)nc(CN(CC(=O)OC(C)(C)C)CC(=O)OC(C)(C)C)c1', 'TGI', '36.5 µM'),
  ('CCn1c2ccccc2c2cc(NC(=O)c3c(NCCNCCO)nc(=O)[nH]c3C)ccc21', 'TGI', '> 100 µM');

Q: Requested read-out: TGI. Entry: `CCOC(=O)c1ccc(Nc2nc3cc(C(F)(F)F)ccc3nc2C(=O)OCC)cc1`
Result: > 100 µM

Q: Requested read-out: TGI. Entry: `CNC(=O)Nc1ccccc1`
Result: > 100 µM

* * *

test system: TK-10 renal; assay: NCI tumour cell line growth inhibition, 48 h
Could you label it y if measured TGI is 30 µM or higher, and n otherwise?

Use these answered entries as a reference point.
INSERT INTO measurements (compound, tgt, class_name) VALUES
  ('C=C1C(=O)O[C@H]2[C@H]1CC/C(COC(=O)NCc1cc(OC)cc(OC)c1)=C\CC[C@@]1(C)O[C@@H]21', 'TK-10 renal', 'n'),
  ('COc1ccc2nc(-c3cc4c([nH]c5ccccc54)c(-c4ccc(F)c(F)c4)n3)[nH]c2c1', 'TK-10 renal', 'n'),
  ('O=C(NCCCCCCNC(=O)OCc1ccc2c(Cl)cc(Cl)c(O)c2n1)OCc1ccc2c(Cl)cc(Cl)c(O)c2n1', 'TK-10 renal', 'n');

Q: Textbook exercise: given the entry `O=C(Nc1ccc(Cl)cc1)NS(=O)(=O)c1c(-c2ccccc2)oc2ccccc2c1=O` , state whether its TGI is greater than or equal to 30 µM.
Result: y

Q: Textbook exercise: given the entry CC1C(O)Oc2cc3c(cc2C1c1ccccc1O)OCO3 (centres undefined) , state whether its TGI is greater than or equal to 30 µM.
Result: y

Q: Textbook exercise: given the entry COC(=O)C1=C(C)N(NC(N)=O)C(C)(O)C12CCOC2=O (centres undefined) , state whether its TGI is greater than or equal to 30 µM.
Result: y

Q: Textbook exercise: given the entry CSC1(CC(=O)N2CCCCC2)C(=O)Nc2ccccc21 (centres undefined) , state whether its TGI is greater than or equal to 30 µM.
Result: y

Q: Textbook exercise: given the entry `COc1cnc2c(c1)C(=O)c1c-2n(CCCNC(C)C)c(=O)c2cc([N+](=O)[O-])ccc12` , state whether its TGI is greater than or equal to 30 µM.
Result: n

Q: Textbook exercise: given the entry `Cn1c(=O)c2c(nc3n(C)c(=O)c4ccccc4n23)n(C)c1=O` , state whether its TGI is greater than or equal to 30 µM.
Result: y

Q: Textbook exercise: given the entry COC(=O)C(=O)C(C(=O)OC)C(=O)C(=O)Nc1cc(Cl)c(Cl)cc1Cl (centres undefined) , state whether its TGI is greater than or equal to 30 µM.
Result: y

Q: Textbook exercise: given the entry `COc1cc(N2CCC(N3CCN(C)CC3)CC2)ccc1Nc1ncc(Cl)c(Nc2ccccc2S(=O)(=O)C(C)C)n1` , state whether its TGI is greater than or equal to 30 µM.
Result: n

Q: Textbook exercise: given the entry `COc1ccc(-n2sc3ncc([N+](=O)[O-])cc3c2=O)cc1` , state whether its TGI is greater than or equal to 30 µM.
Result: y

Q: Textbook exercise: given the entry `CCOC(=O)c1ccc(Nc2nc3cc(C(F)(F)F)ccc3nc2C(=O)OCC)cc1` , state whether its TGI is greater than or equal to 30 µM.
Result: y

Q: Textbook exercise: given the entry `O=C(NNC(=O)c1nsc2ccccc12)c1ccc(Cl)cc1` , state whether its TGI is greater than or equal to 30 µM.
Result: y

Q: Textbook exercise: given the entry `Cc1nn(C)c2cc(N(C)c3ccnc(Nc4cccc(S(N)(=O)=O)c4)n3)ccc12` , state whether its TGI is greater than or equal to 30 µM.
Result: n

Q: Textbook exercise: given the entry `Cc1c(CC/C(=N\Nc2ccc([N+](=O)[O-])cc2[N+](=O)[O-])c2ccccc2)c2ccccc2n1C` , state whether its TGI is greater than or equal to 30 µM.
Result: y

Q: Textbook exercise: given the entry `c1ccc2c3c(ccc2c1)-c1c(ccc2c(NCCCCN4CCCCC4)cccc12)C3` , state whether its TGI is greater than or equal to 30 µM.
Result: n

Q: Textbook exercise: given the entry `O=C(O)CCSC(=S)Nc1ccc([N+](=O)[O-])cc1` , state whether its TGI is greater than or equal to 30 µM.
Result: y

Q: Textbook exercise: given the entry `Fc1ccc(-c2nc(Nc3ccc(-c4nc5ccccc5[nH]4)cc3)nc(N3CCOCC3)n2)cc1` , state whether its TGI is greater than or equal to 30 µM.
Result: n

Q: Textbook exercise: given the entry `C#Cc1cc(CN(CC(=O)OC(C)(C)C)CC(=O)OC(C)(C)C)nc(CN(CC(=O)OC(C)(C)C)CC(=O)OC(C)(C)C)c1` , state whether its TGI is greater than or equal to 30 µM.
Result: y

Q: Textbook exercise: given the entry COC1=CC(=O)C2C(C1=O)C(c1ccc(OC)c(OC)c1)[C@H]2C (some centres undefined) , state whether its TGI is greater than or equal to 30 µM.
Result: y
